# Test system: SK-MEL-5 melanoma
# Protocol summary: NCI-60 one-dose screen, 48 h (100 = growth as untreated, 0 = no growth, -100 = all killed)
# Condition set: 10 µM unless noted
The panel holds about 83,000 compounds, 20% with a hit somewhere; the sample as a whole holds those more often.
Value type: growth (%)
Quick note: give the figure in %, leave out the unit.

Consider the following illustrative entries.
growth on SK-MEL-5 melanoma for "C#Cc1ccc2c(c1)C(c1ccccc1)=NCC(=O)N2C" is 34.7

Short answer on SK-MEL-5 melanoma for "N/C(=N\N=C\c1ccc(-c2ccccc2)cc1)N[N+](=O)[O-]" , growth: 19.8

Kindly note: SK-MEL-5 melanoma, "Nc1ccc(Cl)cc1" , growth value reported: 99.7

Others:
Given the molecule "C=CCCCN=C=S" and test system SK-MEL-5 melanoma, the measured growth is 95.1

Here "N#C[S-].[Au+].c1ccc(CN2[CH-]N(Cc3ccccc3)C(c3ccccc3)=C2c2ccccc2)cc1" was tested on SK-MEL-5 melanoma, and its growth came to -36.5

Field growth (SK-MEL-5 melanoma), entry "Clc1cccc(NCOOC2(OOCNc3cccc(Cl)c3)CCCCCC2)c1" : 93.7

growth value, target or system SK-MEL-5 melanoma, for CCCCCCCCCCCCCCCCCC1OC[C@H](COC(=O)O[C@@H](C(=O)O[C@H]2C[C@@]3(O)[C@@H](OC(=O)c4ccccc4)[C@@H]4[C@]5(OC(C)=O)CO[C@@H]5C[C@H](O)[C@@]4(C)C(=O)[C@H](OC(C)=O)C(=C2C)C3(C)C)[C@@H](NC(=O)c2ccccc2)c2ccccc2)O1 (stereo partly specified) : 75.6

Item: CO[C@H](C(=O)O)[C@@H]1Cc2cc3cc(OC4CC(OC5CC(O)C(O)C(C)O5)C(O)C(C)O4)c(C)c(O)c3c(O)c2C(=O)[C@H]1OC1CC(OC2CC(OC3CC(C)(O)C(O)C(C)O3)C(O)C(C)O2)C(O)C(C)O1 (stereo partly specified) | System: SK-MEL-5 melanoma | growth: -17.2

Measured growth (SK-MEL-5 melanoma), entry "COP(=S)(N1CC1)N1CC1" : 104

Field growth (system: SK-MEL-5 melanoma) for entry CC(C)OC(=O)[C@H](C)NP(=O)(Oc1ccccc1)C1CCCN(O)C1=O (stereo partly specified) = 99.2

The reported growth value, SK-MEL-5 melanoma, for "CC[C@H](C)[C@H](NC(=O)N[C@@H](C)c1ccccc1)C(=O)N(C)[C@H](C[C@@H](OC(C)=O)c1nc(C(=O)N[C@@H](Cc2ccccc2)C[C@H](C)C(=O)OC)cs1)C(C)C" reads -33.7

The measured growth that "CC1=C([Te]c2ccc(O)cc2)C(=O)c2ccccc2C1=O" showed for SK-MEL-5 melanoma is -94.6

// returns growth for "CC[C@H](C)[C@H](NC(=O)c1cccn1C)C(=O)N(C)[C@H](C[C@@H](OC(C)=O)c1nc(C(=O)N[C@@H](Cc2ccccc2)C[C@H](C)C(=O)OC)cs1)C(C)C" with SK-MEL-5 melanoma; value = -29.1

growth for SK-MEL-5 melanoma with input "CCCCN(CCCC)P(=O)(Oc1ccccc1)Oc1ccccc1" equals 67

Observed growth, SK-MEL-5 melanoma, "O=C(CN1CCN(C(=O)c2ccco2)CC1)Nc1ccc(Cl)cc1C(=O)c1ccccc1Cl" : 51.1

Simply: "c1ccc(COc2ccc3[nH]cc(CCN(Cc4ccccc4)Cc4ccccc4)c3c2)cc1" , SK-MEL-5 melanoma, growth = 88.3

// provenance: PubChem BioAssay (NCI)
